assay: Dog PK study #3 (Compound A PO once daily 5 days, 5/10/20 mg/kg; PK, body weight, hematology); assay type: in vivo, beagle dogs; settings: male, beagle, dog, plasma, po, 5 mg/kg, Day 1, 5 mg/kg dose PO; mean; read-out: Cmax
readout name: Cmax (ng/mL)
# value in ng/mL; strip the unit string

Query block: Reported Cmax, compound `Cn1cc(-c2ccccc2)c(-c2cn(C)c(=O)c3[nH]c(-c4cnn(C(F)(F)F)c4)cc23)cc1=O` : ____
Result block: 736

* * *

Assay: Rat PK study #4 (Compound A PO 0.2 and 1.0 mg/kg, propylene glycol formulation)
Format: in vivo, Lewis rats
Conditions: male, Lewis, rat, plasma, po, 1 mg/kg, 1 mg/kg PO, propylene glycol-based formulation; mean
Method: For the fourth rat pharmacokinetic study, the pharmacokinetics of Compound A were assessed in male Lewis rats. […] The Compound A solutions were administered to animals orally (PO) and animals were then monitored over a 24 h period. […] The concentration of Compound A in plasma samples was determined by liquid chromatography-mass spectrometry (LC-MS/MS) using a Shimadzu HPLC (DGU-20A5R; LC-30AD; SIL-30AC; Rack changer II; CTO-30A; and CBM-20A) and an AB API 5500+LC/MS/MS instrument. […]
readout name: Tmax (h)
# value in h; strip the unit string

Query block: Reported Tmax, compound `Cn1cc(-c2ccccc2)c(-c2cn(C)c(=O)c3[nH]c(-c4cnn(C(F)(F)F)c4)cc23)cc1=O` : ____
Result block: 2
